Target: T1, human CXCR4 (chemokine (C-X-C motif) receptor 4) (human, UniProt P61073 1-352)
T1 construct: Endogenous on human tumour cell lines (Ramos, HPB-ALL, Raji, Jurkat, MM1.S, RPMI-8226, MOLP-8, MOLT-4) or transfected into CHO-K1 cells (DiscoveRx); also called CXCR4 receptor
T1 sequence (P61073 whole entry): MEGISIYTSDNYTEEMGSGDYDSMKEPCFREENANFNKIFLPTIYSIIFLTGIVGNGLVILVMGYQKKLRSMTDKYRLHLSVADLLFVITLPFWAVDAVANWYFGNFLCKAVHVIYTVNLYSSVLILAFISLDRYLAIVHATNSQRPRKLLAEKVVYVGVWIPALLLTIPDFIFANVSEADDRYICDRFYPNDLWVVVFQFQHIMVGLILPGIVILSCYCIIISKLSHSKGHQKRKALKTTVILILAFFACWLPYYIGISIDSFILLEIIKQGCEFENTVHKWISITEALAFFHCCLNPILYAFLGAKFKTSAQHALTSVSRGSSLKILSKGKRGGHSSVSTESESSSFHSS
Assay: flow cytometry on HPB-ALL cells, Fab at 2.5 µg/ml
The following binders are listed with their measured MFI values.
Answer with the value's number alone.

As a guide, the following entries are already answered.
h3G10.B44 VH / h3G10.A58A VL Fab (Fab, V domains shown, Tested as Fab) VH: EVQLVESGGGLVQPGGSLRLSCAASGFTFSDYYMSWVRQAPGKGLEWVSFIRHKANFYTTEYSTSVKGRFTISRDNSKNTLYLQMNSLRAEDTAVYYCAKDLPGFAYWGQGTLVTVSS VL: DIVMTQSPDSLAVSLGERATINCKSSQSLFNSHTRKNYLAWYQQKPGQPPKLLIYWASARGSGVPDRFSGSGSGTDFTLTISSLQAEDVAVYYCKQSFRLRTFGGGTKVEIK    9410
h3G10.2.5 VH / h3G10.2.72 VL Fab (Fab, V domains shown, Tested as Fab) VH: EVQLVESGGGLVQPGGSLRLSCAASGFTFSDYYMSWVRQAPGKGLEWVGFIRHKANIYTTEYSTSVKGRFTISRDDSKNSLYLQMNSLKTEDTAVYYCARDLPGFAYWGQGTLVTVSS VL: DIVMTQSPDSLAVSLGERATINCKSSQSLFNSRTRKNYLAWYQQKPGQPPKLLIYWASARESGVPDRFSGSGSGTDFTLTISSLQAEDVAVYYCKQSFRLRTFGGGTKVEIK    2790

The binder listed as h3G10.3.25 VH / h3G10.2.72 VL Fab (Fab, V domains shown, Tested as Fab) VH: EVQLVESGGGLVQPGGSLRLSCAASGFTFSDYYMSWVRQAPGKGLEWVGFIRHKANFYTTEYSTSDKGRFTISRDDSKNSLYLQMNSLKTEDTAVYYCARDLPGFAYWGQGTLVTVSS VL: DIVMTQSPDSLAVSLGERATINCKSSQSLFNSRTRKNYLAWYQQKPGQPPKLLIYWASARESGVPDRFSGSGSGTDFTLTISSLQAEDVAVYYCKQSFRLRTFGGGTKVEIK has a reported MFI of 2680
